The values you see were collected from patent US20230278984A1.

test-target: Human pyruvate kinase R (PKR) (Homo sapiens, UniProt P30613)
Construct: Human pyruvate kinase R (PKR), residues 14-574; 6x-His (N, cleaved yes); 8x-Arg (N, cleaved yes); SUMO (N, cleaved yes); host or cells: E. coli
Sequence (P30613 14-574): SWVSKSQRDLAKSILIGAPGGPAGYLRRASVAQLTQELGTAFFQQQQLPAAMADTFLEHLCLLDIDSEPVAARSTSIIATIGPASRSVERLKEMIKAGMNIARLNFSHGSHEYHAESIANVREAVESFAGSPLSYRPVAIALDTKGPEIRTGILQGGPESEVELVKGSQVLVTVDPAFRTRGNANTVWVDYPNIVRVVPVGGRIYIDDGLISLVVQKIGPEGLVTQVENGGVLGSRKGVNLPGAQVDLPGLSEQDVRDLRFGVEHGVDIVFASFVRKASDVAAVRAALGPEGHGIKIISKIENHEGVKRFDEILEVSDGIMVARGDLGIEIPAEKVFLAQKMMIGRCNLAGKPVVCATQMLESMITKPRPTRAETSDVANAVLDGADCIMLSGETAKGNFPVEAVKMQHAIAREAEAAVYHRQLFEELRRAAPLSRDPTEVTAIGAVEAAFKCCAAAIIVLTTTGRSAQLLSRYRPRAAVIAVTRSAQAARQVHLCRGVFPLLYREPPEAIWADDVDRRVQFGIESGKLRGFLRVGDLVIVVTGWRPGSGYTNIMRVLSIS
assay-name: Biochemical assay for activation of pyruvate kinase R (Kinase-Glo luminescence measurement of ATP generation)
reported-conditions: PKR biochemical assay; 0.1 nM PKR, 0.3 mM ADP, 2 mM FBP, 0.1 mM PEP
quantity: log10 AC50 (log10 of the value in nM)

# molecule, quantity, numeric-value
rows = [
    ("Cc1nc(CNC(=O)NCc2ncnn2-c2ccc(C3CCC3)nc2)n(-c2ccc(Cl)c(F)c2)n1 [Compound 132]", "log10 AC50", 2.69),
    ("Cc1nc(CNC(=O)NCc2ncnn2-c2cnc3ccccc3c2)n(-c2ccc(Cl)c(F)c2)n1 [Compound 126]", "log10 AC50", 1.83),
    ("Cc1nc(CNC(=O)NCc2nc(C)nn2-c2cnc3ccccc3c2)n(-c2ccc(Cl)c(F)c2)n1 [Compound 138]", "log10 AC50", 1.64),
    ("Cc1nc(CNC(=O)NCC2=NC3(CCC3)C(=O)N2c2ccc3cccnc3c2)n(-c2ccc(Cl)c(F)c2)n1 [Compound 112]", "log10 AC50", 2.90),
    ("Cc1nc(CNC(=O)NCc2ncnn2-c2ccc3cnccc3c2)n(-c2ccc(Cl)c(F)c2)n1 [Compound 82]", "log10 AC50", 2.43),
    ("O=C1N(Cc2ncnn2-c2ccc(Cl)c(F)c2)CCCN1Cc1ncnn1-c1ccc(Cl)c(F)c1 [Compound 6]", "log10 AC50", 0.73),
    ("Cc1nc(CNC(=O)NCc2ncnn2-c2cc(C)c3cccnc3c2)n(-c2ccc(Cl)c(F)c2)n1 [Compound 113]", "log10 AC50", 1.60),
]

###

test-target: Human pyruvate kinase R (PKR) (Homo sapiens, UniProt P30613)
Construct: Human pyruvate kinase R (PKR), residues 14-574; 6x-His (N, cleaved yes); 8x-Arg (N, cleaved yes); SUMO (N, cleaved yes); host or cells: E. coli
assay-name: Biochemical assay for activation of pyruvate kinase R (Kinase-Glo luminescence measurement of ATP generation)
reported-conditions: PKR biochemical assay; 0.1 nM PKR, 0.3 mM ADP, 2 mM FBP, 0.1 mM PEP
We begin with a simple list: items and their reported AC50.

# compound, AC50 / nM
records = [
    ("Cc1nc(CNC(=O)N(C)Cc2ncnn2-c2ccc3cccnc3c2)n(-c2ccc(Cl)c(F)c2)n1 [Compound 54]", 85),
    ("COc1ccc(-n2ncnc2CNC(=O)NCc2ncnn2-c2ccc(OC)nc2)cn1 [Compound 117]", 2600),
    ("O=C(NCc1nnnn1-c1ccc(C(F)(F)F)cc1)NCc1nnnn1-c1ccc(C(F)(F)F)cc1 [Compound 115]", 1700),
    ("O=C(NCc1ncnn1-c1ccc2cccnc2c1)NCc1nc(CF)nn1-c1ccc(Cl)c(F)c1 [Compound 104]", 36),
]

###

Reported AC50 values are given for each entry in this list.
test-target: Human pyruvate kinase R (PKR) (Homo sapiens, UniProt P30613)
Construct: Human pyruvate kinase R (PKR), residues 14-574; 6x-His (N, cleaved yes); 8x-Arg (N, cleaved yes); SUMO (N, cleaved yes); host or cells: E. coli
assay-name: Biochemical assay for activation of pyruvate kinase R (Kinase-Glo luminescence measurement of ATP generation)
reported-conditions: PKR biochemical assay; 0.1 nM PKR, 0.3 mM ADP, 2 mM FBP, 0.1 mM PEP

# smiles-text, AC50, µM
data = [
    ("Cc1nc(CNC(=O)NCc2ncnn2CC2(C)CCOCC2)n(-c2ccc(Cl)c(F)c2)n1", 0.18),
    ("Cc1nc(CNC(=O)NCc2n[nH]c(=O)n2-c2ccc(Cl)c(F)c2)n(-c2ccc(Cl)c(F)c2)n1", 0.031),
    ("O=C(NCc1nnnn1-c1ccc(F)c(Cl)c1)NCc1nnnn1-c1ccc(F)c(Cl)c1", 0.11),
    ("Cc1cc(-n2nnnc2CNC(=O)NCc2nnnn2-c2ccc(Cl)c(C)c2)ccc1Cl", 1.2),
]

###

test-target: Human pyruvate kinase R (PKR) (Homo sapiens)
Construct: Human pyruvate kinase R (PKR), residues 14-574; 6x-His (N, cleaved yes); 8x-Arg (N, cleaved yes); SUMO (N, cleaved yes); host or cells: E. coli
assay-name: Biochemical assay for activation of pyruvate kinase R (Kinase-Glo luminescence measurement of ATP generation)
reported-conditions: PKR biochemical assay; 0.1 nM PKR, 0.3 mM ADP, 2 mM FBP, 0.1 mM PEP
compounds and their reported AC50

# compound, AC50 [nM]
rows = [
    ("Cc1nc(CNC(=O)NCc2ncnn2-c2ccc3ncccc3c2)n(-c2ccc(Cl)c(F)c2)n1 [Compound 41]", 40),
    ("Cc1nc(CNC(=O)NCc2ncnn2-c2cnc3ccc(F)cc3c2)n(-c2ccc(Cl)c(F)c2)n1 [Compound 139]", 61),
    ("Cc1nc(CNC(=O)NCc2ncnn2CC2(O)CCCCC2)n(-c2ccc(Cl)c(F)c2)n1 [Compound 23]", 230),
    ("O=C(NCc1nnnn1-c1ccc(Cl)c(F)c1)NCc1nnnn1-c1ccc(Cl)c(F)c1 [Compound 63]", 63),
    ("Cc1ccc(-n2ncnc2CNC(=O)NCc2ncnn2-c2ccc(C)c(F)c2)cc1F [Compound 67]", 44),
    ("CN(Cc1nnnn1-c1ccc(Cl)c(F)c1)C(=O)NCc1nnnn1-c1ccc(Cl)c(F)c1 [Compound 26]", 73),
    ("Cc1nc(CNC(=O)NCc2nc(C)nn2-c2ccc(Cl)c(CO)c2)n(-c2ccc(Cl)c(F)c2)n1 [Compound 96]", 34),
    ("Cc1nc(CNC(=O)NCc2ncnn2-c2cnc3cc(F)ccc3c2)n(-c2ccc(Cl)c(F)c2)n1 [Compound 135]", 86),
]

###

test-target: Human pyruvate kinase R (PKR) (Homo sapiens, UniProt P30613)
Construct: Human pyruvate kinase R (PKR), residues 14-574; 6x-His (N, cleaved yes); 8x-Arg (N, cleaved yes); SUMO (N, cleaved yes); host or cells: E. coli
assay-name: Biochemical assay for activation of pyruvate kinase R (Kinase-Glo luminescence measurement of ATP generation)
reported-conditions: maximal activation level relative to the activation level achieved by the literature compound AG-348 @ 10 μM
Emax of 90% or higher: yes. Under 90%: no.

# smiles-text, test-target, label-value
measured = [
    ("Cc1nc(CNC(=O)NCc2ncnn2-c2cncc(C3CC3)c2)n(-c2ccc(Cl)c(F)c2)n1", "Human pyruvate kinase R (PKR) (Homo sapiens, UniProt P30613)", "no"),
    ("Cc1nc(CNC(=O)NCc2ncnn2-c2ccc3ncc(F)cc3c2)n(-c2ccc(Cl)c(F)c2)n1", "Human pyruvate kinase R (PKR) (Homo sapiens, UniProt P30613)", "no"),
    ("Cc1nc(CNC(=O)NCc2nc(C)nn2-c2ccc3cccnc3c2)n(-c2ccc3cccnc3c2)n1", "Human pyruvate kinase R (PKR) (Homo sapiens, UniProt P30613)", "yes"),
    ("Cc1nc(CNC(=O)NCc2nc(C)nn2-c2ccc(Cl)c(CO)c2)n(-c2ccc(Cl)c(F)c2)n1", "Human pyruvate kinase R (PKR) (Homo sapiens, UniProt P30613)", "yes"),
    ("Cc1nc(CNC(=O)NCc2nn(C)c(=O)n2-c2ccc(Cl)c(F)c2)n(-c2ccc(Cl)c(F)c2)n1", "Human pyruvate kinase R (PKR) (Homo sapiens, UniProt P30613)", "yes"),
    ("Cc1nc(CNC(=O)NCc2ncnn2-c2ccc3ncccc3c2)n(-c2ccc(Cl)c(F)c2)n1", "Human pyruvate kinase R (PKR) (Homo sapiens, UniProt P30613)", "no"),
]

###

test-target: Human pyruvate kinase R (PKR) (Homo sapiens, UniProt P30613)
Construct: Human pyruvate kinase R (PKR), residues 14-574; 6x-His (N, cleaved yes); 8x-Arg (N, cleaved yes); SUMO (N, cleaved yes); host or cells: E. coli
assay-name: Biochemical assay for activation of pyruvate kinase R (Kinase-Glo luminescence measurement of ATP generation)
reported-conditions: PKR biochemical assay; 0.1 nM PKR, 0.3 mM ADP, 2 mM FBP, 0.1 mM PEP
quantity: log10(AC50) (log10 of the value in nM)

# compound, quantity, numeric-value
measured = [
    ("Cc1nc(CN(C)C(=O)NCc2ncnn2-c2ccc3cccnc3c2)n(-c2ccc(Cl)c(F)c2)n1 [Compound 53]", "log10(AC50)", 2.08),
    ("COc1ccc(-n2nnnc2CNC(=O)NCc2nnnn2-c2ccc(OC)cc2)cc1 [Compound 69]", "log10(AC50)", 2.73),
    ("Cc1nc(CNC(=O)NCc2nc(C)nn2-c2ccc(Cl)c(F)c2)n(-c2ccc(Cl)c(F)c2)n1 [Compound 77]", "log10(AC50)", 1.71),
    ("CN(Cc1ncnn1-c1ccc(Cl)c(F)c1)C(=O)N(C)Cc1ncnn1-c1ccc(Cl)c(F)c1 [Compound 28]", "log10(AC50)", 3.08),
    ("O=C(NCC1=NC2(CC2)C(=O)N1Cc1ccc(F)cc1)NCc1ncnn1-c1ccc(Cl)c(F)c1 [Compound 109]", "log10(AC50)", 2.04),
    ("COCCc1nc(CNC(=O)NCc2ncnn2-c2ccc3cccnc3c2)n(-c2ccc(Cl)c(F)c2)n1 [Compound 97]", "log10(AC50)", 2.71),
    ("Cc1nc(CNC(=O)N(C)Cc2nc(C)nn2-c2ccc(Cl)c(F)c2)n(-c2ccc(Cl)c(F)c2)n1 [Compound 78]", "log10(AC50)", 2.04),
    ("O=C(NCc1nnnn1-c1cccc(Cl)c1)NCc1nnnn1-c1cccc(Cl)c1 [Compound 2]", "log10(AC50)", 2.72),
]
